- experimental.system: MpIBP_RIII1-4 (Marinomonas primoryensis ice-binding protein, Region III domains 1-4), truncated construct ending at N507 (Marinomonas primoryensis)
- method.summary: fluorescence polarisation
pEC50: −log10 of the molar value. Where no end group is shown, it is not given here. The star is where a group is joined. FITC = O=C1OC2(c3ccc(O)cc3Oc3cc(O)ccc32)c2ccc(NC(=S)*)cc21
observed.property: pEC50

• {FITC}-AGASD [FITC-AGASD] = 6.51
• {FITC}-AGAFD [FITC-AGAFD] = 6.74
• {FITC}-AGAYD [FITC-AGAYD] = 6.77
• {FITC}-AGATD [FITC-AGATD] = 7.05
• {FITC}-AGAPD [FITC-AGAPD] = 5.34
• {FITC}-AGAGD [FITC-AGAGD] = 5.82
